Cited source for all entries: ChEMBL document CHEMBL1201862

Tested on: 786-0
MEASUREMENT_NOTES: NCI tumour cell line growth inhibition, 48 h
Calls of active or inactive are those of the source. Cut-off read from the data, not from the text of the source: active = GI50 up to about 1.1 µM and inactive = higher. Square brackets hold non-standard residues; d marks the D form. Peptide text beside a SMILES is read from it. * marks the point of attachment. ξ: configuration not given here. Propanoyl(3-(4-MeO-Ph)) = COc1ccc(CCC(=O)*)cc1; Thr(3ξ) = CC(O)[C@H](N)C(=O)O; dNMeL = CN[C@H](CC(C)C)C(=O)O; ξLac = CC(O)C(=O)O
Write down the outcome that applies. Available outcomes: active, inactive

Recorded test outcome, item CN(C)c1ccc(/C=C(\NC(=O)c2ccccc2)C(=O)NCC(=O)O)cc1 inactive

Recorded test outcome, item COc1cc(Br)c(OC)c2c(OC)cc(C)cc12 inactive

Recorded test outcome, item O=C(Oc1ccccc1)c1cc2cc(CCl)ccc2oc1=O inactive

Recorded test outcome, item CC(C)(C)N1C(=O)[N-]/[N+](=C(/C(c2ccccc2)=[N+]2/[N-]C(=O)N(C(C)(C)C)C2=O)c2ccccc2)C1=O inactive

Recorded test outcome, item O=C(c1ccccc1)C(c1ccccc1)C1(O)C(=O)Nc2c(Cl)cc(Cl)cc21 (stereo unspecified) inactive

Recorded test outcome, item NC(=O)C/C=C/CC(N)=O inactive

Recorded test outcome, item C(=N/Nc1ccc(-c2nc3ccccc3[nH]2)cc1)/c1c(-c2ccccc2)[nH]c2ccccc12 active

Recorded test outcome, item O=C(N(O)c1ccccc1Cl)C(O)(c1ccccc1)c1ccccc1 inactive

Recorded test outcome, item Cc1ccc(S(=O)(=O)NC(=O)Nc2nc[nH]n2)cc1 inactive

Recorded test outcome, item CCn1c(=O)c2nc(SC)sc2n(-c2ccc(C)cc2)c1=O active

Recorded test outcome, item C#CCn1c(=O)c2cccnc2n(CC#C)c1=O inactive

Recorded test outcome, item COc1ccc(/C=C2\CCC(C)C3=C2N=c2s/c(=C/c4cccc(Br)c4)c(=O)n2C3c2ccc(OC)c(OC)c2)cc1OC (stereo unspecified) inactive

Recorded test outcome, item CCCCCCCCCCOC(=O)NCCC inactive

Recorded test outcome, item N#Cc1sc2c(c1OC(=O)c1ccccc1)c(=O)n(-c1ccccc1)c(=S)n2-c1ccccc1 inactive

Recorded test outcome, item O=C(O)/C=C\C(=O)Nc1ccc(S(=O)(=O)c2ccc(NC(=O)/C=C\C(=O)O)cc2)cc1 inactive

Recorded test outcome, item Cc1[nH]c(=O)[nH]c(=O)c1N(CCF)CCCl [FLUORODOPAN] inactive

Recorded test outcome, item CC1(C)CNCC(C)(OCc2ccccc2)C(=O)NC(C)(C)CNCC(C)(OCc2ccccc2)C(=O)N1 (stereo unspecified) inactive

Recorded test outcome, item CS(=O)(=O)C[S+]([O-])C[S+]([O-])C[S+]([O-])CC(NC(=O)CCC(N)C(=O)O)C(=O)O (stereo unspecified) inactive

Recorded test outcome, item O.O=C([O-])c1ccccc1Nc1ccccc1C(=O)[O-].[Zn+2] inactive

Recorded test outcome, item O=S(=O)(Nc1nccs1)c1ccc(Nc2nc(-c3cccs3)nc3ccc(I)cc23)cc1 inactive

Recorded test outcome, item NC(=O)COc1ccc(Br)cc1Br inactive

Recorded test outcome, item N#CC1CCCCC1NC1(C#N)CCCCC1 (stereo unspecified) inactive

Recorded test outcome, item O=c1[nH]c2ccccc2nc1CBr inactive

Recorded test outcome, item COc1cc(CC2C(=O)OCC2[C@@H](OC(C)=O)c2ccc3c(c2)OCO3)c(Br)c(OC)c1OC (stereo partly specified) inactive

Recorded test outcome, item CC(C)(C)n1c(=O)n2n(c1=O)C1c3cccc4cccc(c34)C2C2c3cccc4cccc(c34)C1n1c(=O)n(C(C)(C)C)c(=O)n12 inactive

Recorded test outcome, item O=c1[nH]/c(=C/c2ccc(OCc3ccccc3)cn2)c(=O)[nH]/c1=C/c1ccc(Cl)cc1 inactive

Recorded test outcome, item CC1(C)C(O)OC(O)C1(C)C (stereo unspecified) inactive

Recorded test outcome, item N#C/C(=C\NC(=S)c1ccncc1)c1nc2ccccc2s1 inactive

Recorded test outcome, item COC(=O)C#Cc1cccc(OC)c1OC inactive

Recorded test outcome, item Oc1cc(CN2COc3ccccc32)c(O)cc1CNC1CCCCC1 inactive

Recorded test outcome, item COc1nc2c(c(=O)n1C)N[C@@H]1[C@@H](O)[C@H](O)CO[C@@H]1N2 inactive

Recorded test outcome, item Cc1nc2c(N3CCCC3)nc(N3CCNCC3)nc2nc1NCc1ccccc1 inactive

Recorded test outcome, item CCN(CC)/[N+]([O-])=N/OCOC(C)=O inactive

Recorded test outcome, item CNC(=S)N/N=C(\C(=N/NC(=S)NC)c1ccccn1)c1ccccn1 inactive

Recorded test outcome, item O=C(O[C@@H](/C=C/c1ccccc1)P1(=O)N(Cc2ccccc2)[C@H]2CCCC[C@@H]2N1Cc1ccccc1)c1ccccc1 inactive

Recorded test outcome, item C[C@]12CC[C@H](OCCC#N)CC1=CC[C@@H]1C2CC[C@]2(C)/C(=N/OCCC#N)CCC12 (stereo partly specified) inactive

Recorded test outcome, item CC(=S)NC1C(Oc2ccc3c(C)cc(=O)oc3c2)OC(CO)C(O)C1O (stereo unspecified) inactive

Recorded test outcome, item Oc1cccnc1CN1CCCCC1 inactive

Recorded test outcome, item CCOC(=O)C(C(=O)OCC)C(=O)c1ccccc1C(=O)c1ccccc1 inactive

Recorded test outcome, item Cc1cccc2c(=O)c3cccc([C@@H](C)C(=O)O)c3oc12 inactive

Recorded test outcome, item COC(=O)[C@@H](NC(=O)[C@@H](CC(C)C)N(C)C(=O)[C@@H]1CCCN1C(=O)C(C)O)C(C)OC(=O)CCc1ccc(OC)cc1 (stereo partly specified) (H-[ξLac]P[dNMeL][Thr(3ξ)](Propanoyl(3-(4-MeO-Ph)))-OMe) inactive
